Numbers sourced from patent US20250041624A1.

Test system: HeLa cells
Experiment: CCK-8 cell viability of HeLa cells under light and magnetic field
Format: cell-based
Conditions: white light 400-700 nm 5 mW·cm−2, 10 min, MF 150 mT, read-out: RB Half inhibitory concentration
parameter.measured: IC50 (µM)
Return type: number; implicit unit µM.

*Q* Provide measured IC50 value, entry: O=C1OC2(c3cc(I)c(O)c(I)c3Oc3c2cc(I)c(O)c3I)c2c(Cl)c(Cl)c(Cl)c(Cl)c21 [RB, Rose Bengal]
*A* 29.2

###

Tested on: HeLa cells
Experiment: CCK-8 cell viability of HeLa cells under light and magnetic field
Assay type: cell-based
Settings: white light 400-700 nm 5 mW·cm−2, 10 min, MF 40 mT, read-out: RB Half inhibitory concentration
parameter.measured: IC50

*Q* Answer with the recorded IC50 of O=C1OC2(c3cc(I)c(O)c(I)c3Oc3c2cc(I)c(O)c3I)c2c(Cl)c(Cl)c(Cl)c(Cl)c21 [RB, Rose Bengal] only.
*A* 31.5 µM
